Source listed as patent US8778966B2.

Here, each record is paired with measured minimal effective concentration data.
tested on: PC3 cells; test: EB1 Comet (microtubule disruption) assay; format: cell-based, human; settings: Homo sapiens, PC-3, 1 h, 1 hour treatment, read-out: EB1 pLAC (converted)
Dear colleague, please return just the value in µM, with no unit written.

Some entries whose results are on file:
Compound	Numeric Result
CCc1cc2ccc(C(C)(C#N)Cc3ccccc3C)cc2[nH]c1=O (stereo not drawn)	0.316
CCc1cc2ccc(C(C#N)(CC)Cc3cccc(OC)c3)cc2[nH]c1=O (stereo not drawn)	0.316
CCc1cc2ccc(C(C)(C#N)Cc3cc(Br)cc4c3OCC4)cc2[nH]c1=O (stereo not drawn)	0.316

Input: Please look up its minimal effective concentration: CCc1cc2ccc(C(C)(C#N)Cc3ccc(OC)nc3Cl)cc2[nH]c1=O (stereo not drawn)
Output: 0.316

Input: Ok, now CCc1cc2ccc(C(C)(C#N)Cc3cc(OC)nc(OC)c3)cc2[nH]c1=O (stereo not drawn)
Output: 1

Input: Check CCc1cc2ccc(C(C)(C#N)Cc3cccc(OCCC#N)c3)cc2[nH]c1=O (stereo not drawn) too.
Output: 0.0316

Input: How about CCc1cc2ccc(C(C)(C#N)Cc3cc(N(C)C)nc(N(C)C)n3)cc2[nH]c1=O (stereo not drawn) ?
Output: 0.316

Input: CCc1cc2ccc(C(C)(C#N)Cc3nc4ccccc4o3)cc2[nH]c1=O (stereo not drawn) ?
Output: 0.316

Input: Proceed to CCc1cc2ccc(C(C)(C#N)Cc3cccc(F)c3)cc2[nH]c1=O (stereo not drawn)
Output: 1
